Tested on: NLRP3 inflammasome
protocolDescription: Selectivity index, ratio of TC50 for mouse J774.A1 cells to IC50 for NLRP3 inflammasome in mouse J774.A1 cells
Type: toxicity, cell-based
conditionContext: read-out: Selectivity Index
propertyName: selectivity ratio

• Cc1coc2c1C(=O)C(=O)c1c-2ccc2c1C(OC(=O)c1ccccc1O)CCC2(C)C (stereo unspecified) = 62.1

###

system: NACHT, LRR and PYD domains-containing protein 3 (Mus musculus)
Sequence (Q8R4B8 whole entry, the tested form may be a part): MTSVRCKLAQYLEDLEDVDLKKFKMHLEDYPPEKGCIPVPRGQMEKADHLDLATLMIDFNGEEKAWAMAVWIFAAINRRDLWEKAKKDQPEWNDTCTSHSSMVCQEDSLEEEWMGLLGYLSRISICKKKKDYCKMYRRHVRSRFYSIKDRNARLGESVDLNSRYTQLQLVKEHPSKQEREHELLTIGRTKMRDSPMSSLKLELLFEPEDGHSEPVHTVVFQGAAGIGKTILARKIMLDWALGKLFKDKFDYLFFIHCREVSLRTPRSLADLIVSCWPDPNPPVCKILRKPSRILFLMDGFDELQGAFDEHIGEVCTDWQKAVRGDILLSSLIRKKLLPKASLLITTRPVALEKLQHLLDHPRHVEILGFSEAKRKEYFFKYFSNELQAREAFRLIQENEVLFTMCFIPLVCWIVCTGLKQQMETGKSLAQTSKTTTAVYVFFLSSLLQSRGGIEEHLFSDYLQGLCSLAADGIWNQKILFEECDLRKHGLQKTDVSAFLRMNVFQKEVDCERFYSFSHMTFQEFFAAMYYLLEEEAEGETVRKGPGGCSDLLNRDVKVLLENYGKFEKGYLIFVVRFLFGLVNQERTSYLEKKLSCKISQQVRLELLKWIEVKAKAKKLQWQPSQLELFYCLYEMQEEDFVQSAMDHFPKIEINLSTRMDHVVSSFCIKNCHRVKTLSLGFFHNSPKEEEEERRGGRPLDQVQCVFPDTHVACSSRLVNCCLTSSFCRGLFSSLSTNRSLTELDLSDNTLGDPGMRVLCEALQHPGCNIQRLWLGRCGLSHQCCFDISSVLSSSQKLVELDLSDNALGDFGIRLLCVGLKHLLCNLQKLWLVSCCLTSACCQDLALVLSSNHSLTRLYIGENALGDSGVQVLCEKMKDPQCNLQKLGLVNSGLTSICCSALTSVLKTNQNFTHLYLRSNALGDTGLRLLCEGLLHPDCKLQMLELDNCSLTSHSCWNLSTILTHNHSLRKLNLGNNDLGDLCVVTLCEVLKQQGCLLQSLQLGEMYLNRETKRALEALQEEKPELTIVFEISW
protocolDescription: Inhibition of NLRP3 inflammasome in mouse J774.A1 cells assessed as inhibition of IL-1 beta secretion
pIC50: −log10 of the molar value.
Would you mind labelling by pIC50? At or over 6 is Fulfilled, under is Not fulfilled.

• Cc1coc2c1C(=O)C(=O)c1c-2ccc2c1C(OC(=O)c1cc(Cl)ccc1Cl)CCC2(C)C (stereo not drawn) = Not fulfilled
• Cc1c(S(=O)(=O)O)oc2c1C(=O)C(=O)c1c-2ccc2c1CCCC2(C)C [TANSHINONE IIA SULFONIC ACID] = Not fulfilled
• Cc1c(-c2ccccc2)oc2c1C(=O)C(=O)c1c-2ccc2c1CCCC2(C)C = Not fulfilled
• Cc1coc2c1C(=O)C(=O)c1c-2ccc2c1C(OC(=O)c1cccc(O)c1)CCC2(C)C (stereo not drawn) = Not fulfilled
• Cc1coc2c1C(=O)C(=O)c1c-2ccc2c1CCCC2(C)C [TANSHINONE IIA] = Not fulfilled
• Cc1coc2c1C(=O)C(=O)c1c-2ccc2c1C=CCC2(C)C = Fulfilled
• Cc1c(Br)oc2c1C(=O)C(=O)c1c-2ccc2c1CCCC2(C)C = Not fulfilled
• Cc1coc2c3ccc4c(c3c3ocnc3c12)CCCC4(C)C = Not fulfilled
• Cc1coc2c1C(=O)C(=O)c1c-2ccc2c1C(OC(=O)c1ccc(O)cc1)CCC2(C)C (stereo not drawn) = Not fulfilled
• COc1cc(/C=C/C(=O)OC2CCC(C)(C)c3ccc4c(c32)C(=O)C(=O)c2c(C)coc2-4)cc(OC)c1OC (stereo not drawn) = Not fulfilled
• Cc1coc2c1C(=O)C(=O)c1c-2ccc2c1C(OC(=O)c1ccccc1O)CCC2(C)C (stereo not drawn) = Fulfilled

###

protocolDescription: Cytotoxicity against mouse J774.A1 cells assessed as cell viability
Type: toxicity, cell-based
conditionContext: read-out: TC50 (the source's name)
propertyName: CC50 (µM)

- Cc1coc2c1C(=O)C(=O)c1c-2ccc2c1C(OC(=O)c1ccc(O)cc1)CCC2(C)C (stereo not given): 14.5
- Cc1coc2c1C(=O)C(=O)c1c-2ccc2c1C(OC(=O)c1cccc(O)c1)CCC2(C)C (stereo not given): 18.2
- CC(=O)OC1CCC(C)(C)c2ccc3c(c21)C(=O)C(=O)c1c(C)coc1-3 (stereo not given): 36.5

###

protocolDescription: Cytotoxicity against mouse J774.A1 cells assessed as cell viability
Assay type: toxicity, cell-based
conditionContext: read-out: TC50 (the source's name)
propertyName: CC50 (µM)

• COc1cc(/C=C/C(=O)OC2CCC(C)(C)c3ccc4c(c32)C(=O)C(=O)c2c(C)coc2-4)cc(OC)c1OC (stereo not drawn) = 60.2
• Cc1coc2c1C(=O)C(=O)c1c-2ccc2c1C(OC(=O)c1ccccc1O)CCC2(C)C (stereo not drawn) = 30.8
• Cc1coc2c1C(=O)C(=O)c1c-2ccc2c1C(OC(=O)c1cc(Cl)ccc1Cl)CCC2(C)C (stereo not drawn) = 19.7
• Cc1coc2c1C(=O)C(=O)c1c-2ccc2c1C(OC(=O)CCCCC1CCSS1)CCC2(C)C (stereo not drawn) = 26.8
• Cc1coc2c1C(=O)C(=O)c1c-2ccc2c1C=CCC2(C)C = 61.8

###

Property: CC50; scope: individual compounds
protocolDescription: Cytotoxicity against mouse J774.A1 cells assessed as cell viability
Format: toxicity, cell-based
conditionContext: read-out: TC50 (the source's name)
propertyName: CC50

- Cc1c(-c2ccccc2)oc2c1C(=O)C(=O)c1c-2ccc2c1CCCC2(C)C: > 100 µM
- Cc1coc2c3ccc4c(c3c3ocnc3c12)CCCC4(C)C: > 100 µM
- Cc1coc2c1C(=O)C(=O)c1c-2ccc2c1CCCC2(C)C: > 100 µM

Just for reference, ChEMBL document CHEMBL5625275 is where these values come from.
